Molecular target: T1, recombinant N-terminal His-tag HGFA serine protease domain (UniProt Q04756 373-655)
T1 sequence (looked up): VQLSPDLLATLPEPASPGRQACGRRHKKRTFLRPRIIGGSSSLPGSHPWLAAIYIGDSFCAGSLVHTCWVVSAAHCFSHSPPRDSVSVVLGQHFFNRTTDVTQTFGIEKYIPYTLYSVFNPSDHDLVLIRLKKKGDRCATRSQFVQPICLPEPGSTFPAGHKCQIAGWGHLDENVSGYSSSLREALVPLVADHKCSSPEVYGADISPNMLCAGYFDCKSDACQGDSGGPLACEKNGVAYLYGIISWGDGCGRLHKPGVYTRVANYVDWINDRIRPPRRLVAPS
Assay: cell-based or functional assay
Positions of bridges follow the written chain, without caps; N, C: chain ends. kbt = C-terminal Arg ketobenzothiazole
Label Yes when HGFA (IC50 nM) < 100 nM; otherwise No.

Determine whether this binder shows HGFA (IC50 nM) lower than 100 nM (ties excluded): Ac-Gln-Phe-Arg-kbt [MM3144 Ac-QFR-kbt]
Yes

Strictly below 100 nM in HGFA (IC50 nM)? Ac-GQFR-kbt [MM3122 Ac-GQFR-kbt]
Yes

Here's an entry: Ac-DLKR-kbt (lactam 1-3; not fully specified; printed as Cyclo(DLK)R-kbt; also: N-terminal acetyl described as 6-acetamido) [Cyclo(DLK)R-kbt, VD2173] . Is its HGFA (IC50 nM) below 100 nM?
No

Criterion: HGFA (IC50 nM) strictly below 100 nM. Is it met by Ac-MQFR-kbt [MM3130 Ac-MQFR-kbt] ?
Yes

Is it true that HGFA (IC50 nM) reported for Ac-DMKR-kbt (lactam 1-3; not fully specified; printed as Cyclo(DMK)R-kbt; also: N-terminal acetyl described as 6-acetamido) [Cyclo(DMK)R-kbt, VD3173] is less than 100 nM?
No

Please let me know if Ac-IQFR-kbt [MM3116 Ac-IQFR-kbt] shows HGFA (IC50 nM) below 100 nM.
Yes

API: query returns whether the binder falls strictly under 100 nM in HGFA (IC50 nM). Query: Ac-PQFR-kbt [MM3123 Ac-PQFR-kbt]
Yes

Dear colleague, could you confirm whether HGFA (IC50 nM) of Ac-DQKR-kbt (lactam 1-3; also: N-terminal acetyl described as 6-acetamido) [Cyclo(DQK)R-kbt, VD3152] falls below 100 nM? Thanks.
No
